We begin with a simple list: items and their reported pIC50.
- MEASURED ON: human CSNK1D (Homo sapiens)
- PROTOCOL SUMMARY: Whole Cell nBRET CSNK1D Binding Assay
- STUDY CONDITIONS: living CHO cells stably expressing human CSNK1D tagged with nanoluciferase; NanoBret tracer 130 nM; 2 hours at 37 C
Friendly reminder that pIC50 comes from taking -log10 of the concentration in mol/L.

# value lookup — system human CSNK1D (Homo sapiens), readout pIC50, item C[C@@H]1n2nc(-c3ccc(F)cc3)c(-c3ccnc4[nH]ncc34)c2COC1(C)C (single isomer, unassigned)
8.22

Try this compound too: "Cc1nc(-c2c(-c3ccc(F)cc3)nn3c2OCC2(CC2)C3)c2cn[nH]c2n1"
7.46

Also need Cc1cc(-c2c(-c3ccc(F)cc3)nn3c2OCC(C)C3)c2cn[nH]c2n1 (racemic) , thanks.
8.40

Entry "CC(=O)Nc1cc(-c2c(-c3ccc(F)cc3)nn3c2C[C@H](F)C3)ccn1" please
8.70

----------
- MEASURED ON: human CSNK1D (Homo sapiens, UniProt P48730)
- PROTOCOL SUMMARY: Whole Cell nBRET CSNK1D Binding Assay
- STUDY CONDITIONS: living CHO cells stably expressing human CSNK1D tagged with nanoluciferase; NanoBret tracer 130 nM; 2 hours at 37 C
pIC50: −log10 of the molar value.
Please note: YES applies when pIC50 is 7 or greater, and NO applies otherwise.

Worked examples, 6 compounds total:
1. [2H]C([2H])([2H])C1(C([2H])([2H])[2H])Cn2nc(-c3ccc(F)cn3)c(-c3ccn4nccc4c3)c2CO1 [Example 396] : NO
2. Cc1nc2[nH]ncc2c(-c2c(-c3ccc(F)cn3)nn3c2CC[C@]2(C3)CC2(F)F)c1F (single isomer, unassigned) [Example 332] : YES
3. Cc1nc(-c2c(-c3ccc(F)cc3)nn3c2OCC(F)(F)C3)c2cn[nH]c2n1 [Example 469] : NO
4. CCn1ncc2cc(-c3c(-c4ccc(F)cn4)nn4c3CCC4)cnc21 [Example 223] : NO
5. C[C@@H]1[C@@H](C)OCc2c(-c3ccnc4[nH]ncc34)c(-c3ccc(F)cc3)nn21 (relative stereo) [Example 114] : YES
6. C[C@@]1(CF)CCc2c(-c3ccnc4[nH]nc(Cl)c34)c(-c3ccc(F)cn3)nn2C1 (single isomer, unassigned) [Example 291] : YES

Would you say Cc1cc(-c2c(-c3ccc(F)cn3)nn3c2CC[C@H]3C)c2cn[nH]c2n1 [Example 21] shows pIC50 at minimum 7?
NO

----------
- MEASURED ON: human recombinant GST cleaved CSNK1D (Homo sapiens, UniProt P48730)
- Construct: GST (cleaved yes)
- Sequence (P48730 whole entry): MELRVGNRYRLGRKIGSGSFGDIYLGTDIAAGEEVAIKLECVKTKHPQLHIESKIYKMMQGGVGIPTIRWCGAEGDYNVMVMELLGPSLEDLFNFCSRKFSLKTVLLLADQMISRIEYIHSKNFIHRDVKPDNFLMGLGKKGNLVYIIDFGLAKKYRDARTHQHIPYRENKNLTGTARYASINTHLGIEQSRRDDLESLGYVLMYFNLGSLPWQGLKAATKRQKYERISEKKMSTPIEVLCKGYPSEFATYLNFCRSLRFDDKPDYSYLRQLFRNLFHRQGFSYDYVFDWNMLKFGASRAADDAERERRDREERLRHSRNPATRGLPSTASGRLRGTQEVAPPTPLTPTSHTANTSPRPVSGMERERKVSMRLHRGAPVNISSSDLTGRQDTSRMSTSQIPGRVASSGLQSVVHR
- PROTOCOL SUMMARY: Purified Enzyme Assay (ADP-Glo CSNK1D Kinase Assay)
- STUDY CONDITIONS: 2 nM CSNK1D; peptide substrate 150 μM; ATP 20 μM; 45 minutes at room temperature
MEASURED ENDPOINT: IC50 (nM)
// return numeric value only (unit: nM, not printed)

1) C[C@@]1(CF)CCc2c(-c3c(F)cnc4[nH]ncc34)c(-c3ccc(F)cn3)nn2C1 (single isomer, unassigned) [Example 292] : 3
2) CCn1ncc2cc(-c3c(-c4ccc(F)cn4)nn4c3OCC(C)(C)C4)cnc21 [Example 452] : 44
3) Cc1nc(-c2c(-c3ccc(F)cc3)nn3c2CCC3)c2cn[nH]c2n1 [Example 225] : 8
4) Fc1ccc(-c2nn3c(c2-c2ccnc4[nH]ncc24)CC2(C3)CC2(F)F)nc1 (single isomer, unassigned) [Example 254] : 4
5) COCC1(F)CCc2c(-c3c(F)cnc4[nH]ncc34)c(-c3ccc(F)cn3)nn2C1 (single isomer, unassigned) [Example 303] : 9

Given Fc1cnc(-c2nn3c(c2-c2ccnc4[nH]ncc24)OCCC3)c(F)c1 [Example 188] , state its recorded IC50.
12

Thanks! And Fc1ccc(-c2nn3c(c2-c2ccnc4[nH]ncc24)OCCCC3)cc1 [Example 216] ?
2

Moving on to the next compound: Fc1ccc(-c2nn3c(c2-c2ccnc4[nH]ncc24)C2CC2C3)cc1 (racemic) [Example 275]
1

Also C[C@@H]1n2nc(-c3ccc(F)cc3)c(-c3ccnc4[nH]ncc34)c2COC1(C)C (single isomer, unassigned) [Example 171] , if possible.
1

Next record, please: CC1(C)COCc2c(-c3ccnc4[nH]ncc34)c(-c3ccc(F)cn3)nn21 [Example 122]
120

----------
- MEASURED ON: human recombinant GST cleaved CSNK1D (Homo sapiens, UniProt P48730)
- Construct: GST (cleaved yes)
- PROTOCOL SUMMARY: Purified Enzyme Assay (ADP-Glo CSNK1D Kinase Assay)
- STUDY CONDITIONS: 2 nM CSNK1D; peptide substrate 150 μM; ATP 20 μM; 45 minutes at room temperature
Catalogue of pIC50 values
Scale explanation: pIC50 corresponds to minus log10 of a concentration expressed in moles per litre.

Some molecules with recorded pIC50:
1) CC(=O)Nc1cc(-c2c(-c3ccc(F)cn3)nn3c2CC[C@H]2[C@@H]3C2(F)F)ccn1 (stereo in doubt) [Example 351] : 8.70
2) CC[C@]1(C)Cn2nc(-c3ccc(F)cn3)c(-c3ccnc4[nH]ncc34)c2CO1 (single isomer, unassigned) [Example 169] : 8.40

Attention now shifts to the item below.
# input molecule: C[C@H]1OCCn2nc(-c3ccc(F)cn3)c(-c3ccnc4[nH]ccc34)c21 [Example 80] ; wanted: its pIC50
7.74

----------
- MEASURED ON: human recombinant GST cleaved CSNK1D (Homo sapiens)
- Construct: GST (cleaved yes)
- PROTOCOL SUMMARY: Purified Enzyme Assay (ADP-Glo CSNK1D Kinase Assay)
- STUDY CONDITIONS: 2 nM CSNK1D; peptide substrate 150 μM; ATP 20 μM; 45 minutes at room temperature
pIC50 values, listed per item
Expect pIC50 as a plain number equal to -log10 of the molar concentration.

Example results:
1) Cc1cc(-c2c(-c3ccc(F)cc3)nn3c2COC[C@@H]3C)c2cn[nH]c2n1 (single isomer, unassigned) [Example 93] : 8.00
2) [2H]C([2H])([2H])C1(C([2H])([2H])[2H])CCc2c(-c3ccnc4[nH]ncc34)c(-c3ccc(F)cn3)nn2C1 [Example 283] : 8.70

Query molecule follows.
Looking for the measured pIC50 of CC1COc2c(-c3ccnc4[nH]ncc34)c(-c3ccc(F)cn3)nn2C1 (stereo not shown) [Example 196] , can you help?
8.70

----------
- MEASURED ON: human recombinant GST cleaved CSNK1D (Homo sapiens, UniProt P48730)
- Construct: GST (cleaved yes)
- PROTOCOL SUMMARY: Purified Enzyme Assay (ADP-Glo CSNK1D Kinase Assay)
- STUDY CONDITIONS: 2 nM CSNK1D; peptide substrate 150 μM; ATP 20 μM; 45 minutes at room temperature
MEASURED ENDPOINT: pIC50
The quantity pIC50 is defined as the negative base-10 logarithm of the molar concentration.

1. Fc1ccc(-c2nn3c(c2-c2ccnc4[nH]ncc24)CO[C@H](C(F)(F)F)C3)cc1 [Example 100] : 7.26

What does the data say about its pIC50? Entry: C[C@H]1CCc2c(-c3ccnc4[nH]ncc34)c(-c3ccc(F)cc3)nn21 [Example 15]
9.00

c1cc(-c2c(-c3cscn3)nn3c2CCCC3)c2cn[nH]c2n1 [Example 31] , same question.
7.19

Thanks! And Fc1ccc(-c2nn3c(c2-c2ccnc4[nH]ncc24)C[C@@H]2C[C@@H]23)cc1 [Example 268] ?
9.00

----------
- MEASURED ON: human CSNK1D (Homo sapiens, UniProt P48730)
- PROTOCOL SUMMARY: Whole Cell nBRET CSNK1D Binding Assay
- STUDY CONDITIONS: living CHO cells stably expressing human CSNK1D tagged with nanoluciferase; NanoBret tracer 130 nM; 2 hours at 37 C
Please assign a class to every record based on measured IC50, with ranges bottom (below 0.04 µM), middle (0.04 µM to below 0.1 µM), top (0.1 µM or more)

1. CC(C)[C@@H]1Cn2nc(-c3ccc(F)cn3)c(-c3ccnc4[nH]ncc34)c2CO1 (single isomer, unassigned) [Example 97] : top
2. Fc1ccc(-c2nn3c(c2-c2ccnc4[nH]ncc24)C[C@@H](F)C3)cc1 [Example 228] : middle
3. Cc1nc2[nH]ncc2c(-c2c(-c3ccc(F)cn3)nn3c2CC(C)(C)C3)c1F [Example 240] : bottom
4. Fc1ccc(-c2nn3c(c2-c2ccnc4[nH]ncc24)COC(C(F)(F)F)C3)nc1 (stereo not shown) [Example 102] : top
5. CC1(C)COc2c(-c3ccnc4cn[nH]c34)c(-c3ccc(F)cc3)nn2C1 [Example 453] : bottom
6. Fc1ccc(-c2nn3c(c2-c2ccnc4[nH]ncc24)CCC2(C3)CC2(F)F)nc1 (single isomer, unassigned) [Example 327] : middle
7. C[C@H]1CCc2c(-c3ccnc4[nH]ncc34)c(-c3ccc(F)cc3)nn21 [Example 15] : bottom
8. Cc1nc2[nH]ncc2c(-c2c(-c3ccc(F)cn3)nn3c2CC2(C3)CC2(F)F)c1F (single isomer, unassigned) [Example 263] : top

Hello team, could you let me know which band the following molecule falls into: Cc1cc(-c2c(-c3ccc(F)cn3)nn3c2OCC(C)C3)c2cn[nH]c2n1 (stereo not shown) [Example 197]
bottom
